test system: sclera; test: Content of collagen specific amino acids in rabbit sclera after long term treatment (HPLC); assay type: in vivo; conditions: anterior sclera, dried defatted weight, 10 weeks treatment (Example 4)
Marks after values point to notes of the source that are not given here.
metric: Proline content

Some solved entries appear below for comparison.
[[record]]
compound = "Cn1cnc2c1c(=O)[nH]c(=O)n2C [Theobromine, 3,7-Dimethylxanthine]"
measured_result = "1073 +/− 78* nanomol/mg tissue"

[[record]]
compound = "CC(=O)Nc1nnc(S(N)(=O)=O)s1 [Acetazolamide, acetazolamide]"
measured_result = "843 +/− 47* nanomol/mg tissue"

[[record]]
compound = "NCCC[C@H](N)C(=O)O [L-ornithine]"
measured_result = "875 +/− 48 nanomol/mg tissue"


Lookup: Returns the measured Proline content for the input compound. Input: Cn1cnc2[nH]c(=O)[nH]c(=O)c21 [7-Methylxanthine]
Found: 951 +/− 111 nanomol/mg tissue

----------
test system: sclera; assay: Content of proteoglycanes in rabbit sclera after long term treatment (alcian blue method); type: in vivo; conditions: wet weight, 10 weeks treatment (Example 4)
Below is a list of entries, each paired with its recorded Content of proteoglycanes, anterior sclera value.

Some solved entries appear below for comparison.
[[record]]
molecule = "CC(=O)Nc1nnc(S(N)(=O)=O)s1 [Acetazolamide, acetazolamide]"
assayed_system = "sclera"
measured_result = "2.9 +/− 0.4 μg PG/mg tissue"

[[record]]
molecule = "Cn1cnc2[nH]c(=O)[nH]c(=O)c21 [7-Methylxanthine]"
assayed_system = "sclera"
measured_result = "2.5 +/− 0.5 μg PG/mg tissue"

[[record]]
molecule = "Cn1cnc2c1c(=O)[nH]c(=O)n2C [Theobromine, 3,7-Dimethylxanthine]"
assayed_system = "sclera"
measured_result = "2.6 +/− 0.7 μg PG/mg tissue"


Shift focus to the following entry.
Lookup: Returns the measured Content of proteoglycanes, anterior sclera for the input molecule. Input: NCCC[C@H](N)C(=O)O [L-ornithine]
Found: 3.0 +/− 1.1 μg PG/mg tissue

----------
tested on: sclera; assay: Content of proteoglycanes in rabbit sclera after long term treatment (alcian blue method); assay type: in vivo; design: concentration or dose not given beside the values; conditions: rabbit, Examples 2 and 4
metric: Effect on proteoglycan content of posterior sclera in % compared to control (%)
Write down the numeric answer in % and omit the unit.

Lookup: Returns the measured Effect on proteoglycan content of posterior sclera in % compared to control for the input molecule. Input: Cn1c(=O)c2c(ncn2C)n(C)c1=O
Found: 119

Lookup: Returns the measured Effect on proteoglycan content of posterior sclera in % compared to control for the input molecule. Input: Cn1c(=O)c2[nH]cnc2n(C)c1=O
Found: 100

Lookup: Returns the measured Effect on proteoglycan content of posterior sclera in % compared to control for the input molecule. Input: Cn1cnc2[nH]c(=O)[nH]c(=O)c21
Found: 114

Lookup: Returns the measured Effect on proteoglycan content of posterior sclera in % compared to control for the input molecule. Input: Cn1cnc2c1c(=O)[nH]c(=O)n2C
Found: 86

----------
test system: sclera; experiment: Content of proteoglycanes in rabbit sclera after long term treatment (alcian blue method); assay type: in vivo; details: wet weight, 10 weeks treatment (Example 4)
Below is a list of entries, each paired with its recorded Content of proteoglycanes, posterior sclera value.

[[record]]
compound = "Cn1cnc2[nH]c(=O)[nH]c(=O)c21"
measured_result = "3.3 +/− 0.3 μg PG/mg tissue"

[[record]]
compound = "NCCC[C@H](N)C(=O)O"
measured_result = "3.0 +/− 0.9 μg PG/mg tissue"


Lookup: Request body: readout Content of proteoglycanes, posterior sclera, system sclera, query Cn1cnc2c1c(=O)[nH]c(=O)n2C . Return the value.
Found: 2.5 +/− 0.4 μg PG/mg tissue

Lookup: Request body: readout Content of proteoglycanes, posterior sclera, system sclera, query CC(=O)Nc1nnc(S(N)(=O)=O)s1 [Acetazolamide, acetazolamide] . Return the value.
Found: 2.8 +/− 0.8 μg PG/mg tissue
